The values you see were collected from patent US10183944B2.

MEASURED TARGET: JAK2 (Homo sapiens (Human), UniProt O60674)
Sequence (O60674 808-1132): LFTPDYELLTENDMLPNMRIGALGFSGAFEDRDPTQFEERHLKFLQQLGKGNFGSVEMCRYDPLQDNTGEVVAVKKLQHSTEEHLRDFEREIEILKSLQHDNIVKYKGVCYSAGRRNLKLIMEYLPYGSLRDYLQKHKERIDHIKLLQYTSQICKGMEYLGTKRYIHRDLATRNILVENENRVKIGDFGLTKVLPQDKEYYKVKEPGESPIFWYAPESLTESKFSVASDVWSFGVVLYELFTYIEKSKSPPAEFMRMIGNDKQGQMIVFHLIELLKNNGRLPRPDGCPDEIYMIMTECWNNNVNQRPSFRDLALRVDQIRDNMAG
ASSAY DETAILS: Inhibition of enzymatic JAK2 kinase activity (TR-FRET)
Type: biochemical
SETUP CONDITIONS: read-out: IC50 JAK
MEASUREMENT KIND: IC50

N#CCC1CCN(c2nc(Nc3ccc(N4CCCC(CC(=O)O)C4)cc3)c3c(=O)[nH]ncc3n2)CC1 (stereo not drawn) [Example 250]	< 0.01 µM
O=c1[nH]ncc2nc(-c3ccccc3)nc(Nc3ccc(OCCN4CCNCC4)cc3)c12 [Example 152]	> 0.1 µM
COC1CCN(c2ccc(Nc3nc(N4CCC(CC#N)CC4)nc4cn[nH]c(=O)c34)cc2)CC1 [Example 287]	< 0.05 µM
N#CCC1CCN(c2nc(Nc3ccc(N4CCN(CCCO)CC4)cc3)c3c(=O)[nH]ncc3n2)CC1 [Example 261]	< 0.05 µM
N#CCC(=O)N1CCN(c2ccc(Nc3nc(N4CCC(CC#N)CC4)nc4cn[nH]c(=O)c34)cn2)CC1 [Example 237]	< 0.01 µM

Query molecule follows.
Prompt line: Please report IC50 for the following molecule: O=c1[nH]ncc2nc(N3CCCCCC3)nc(Nc3ccc(CCN4CCC(O)CC4)cc3)c12 [Example 201]
Response line: < 0.01 µM

###

MEASURED TARGET: Syk (356-635 amino acids) catalytic domain (Homo sapiens (Human), UniProt P43405)
ASSAY DETAILS: Inhibition of enzymatic Syk kinase activity (radiometric)
Assay type: biochemical
SETUP CONDITIONS: read-out: IC50 Syk
Protocol: The objective of this assay was to examine by radiometric method the ability of compounds to inhibit Syk kinase enzyme. Syk is capable of phosphorylating substrates such as VAV, LAT, SLP-76, which in turn activate MAPK, PLCγ signaling pathways. […] This in vitro assay tests the ability of syk to phosphorylate a substrate peptide in the presence of ATP. […] The filter plate was dried and the radioactivity was measured on a scintillation counter to estimate the incorporated radioactivity on the substrate. […]
MEASUREMENT KIND: IC50

Prompt line: # return recorded IC50 for entry N#CCN1CCN(c2nc(Nc3ccc(OCCN4CCNCC4)cc3)c3c(=O)[nH]ncc3n2)CC1
Response line: > 100 nM

Prompt line: Please give measured IC50 of the following entry: N#CCC1CCN(c2nc(Nc3ccc(OC4CCN(CC(=O)O)CC4)cc3)c3c(=O)[nH]ncc3n2)CC1
Response line: < 50 nM

Prompt line: Fill in IC50 for record NC(=O)CC1CCN(c2ccc(Nc3nc(N4CCCCCC4)nc4cn[nH]c(=O)c34)cc2)CC1
Response line: < 10 nM

Prompt line: State its IC50 for this compound: O=C(O)CCC1CCN(c2ccc(Nc3nc(N4CCCCCC4)nc4cn[nH]c(=O)c34)cc2)CC1
Response line: < 10 nM

Prompt line: For the compound CC(C)(C(=O)O)N1CCN(c2ccc(Nc3nc(N4CCC(CC#N)CC4)nc4cn[nH]c(=O)c34)cc2)CC1 , give its measured IC50 value.
Response line: < 10 nM

###

MEASURED TARGET: Syk (356-635 amino acids) catalytic domain (Homo sapiens (Human))
ASSAY DETAILS: Inhibition of enzymatic Syk kinase activity (radiometric)
Format: biochemical
SETUP CONDITIONS: read-out: IC50 Syk
pIC50: −log10 of the molar value.
Quick list: pIC50 per entry.

Prompt line: Indicate its recorded pIC50; the compound in question is O=c1[nH]ncc2nc(N3CCCCCC3)nc(Nc3ccc(-c4nn[nH]n4)cc3)c12 [Example 227]
Response line: > 7.30

Prompt line: Return value of pIC50 for input N#CCN1CCN(c2nc(Nc3ccc(N4CCC(CC(=O)O)CC4)cc3)c3c(=O)[nH]ncc3n2)CC1 [Example 70] , no commentary.
Response line: > 7.00

###

MEASURED TARGET: Syk (356-635 amino acids) catalytic domain (Homo sapiens (Human), UniProt P43405)
ASSAY DETAILS: Inhibition of enzymatic Syk kinase activity (radiometric)
Assay type: biochemical
SETUP CONDITIONS: read-out: IC50 Syk
Listed here are compounds together with their documented IC50.

Some compounds with known IC50 results, for comparison:
COc1cc(Nc2nc(N3CCC(CC#N)CC3)nc3cn[nH]c(=O)c23)cc(OC)c1OC	> 100 nM
N#CCC1CCN(c2nc(Nc3ccc(OCCC4CCNCC4)cc3)c3c(=O)[nH]ncc3n2)CC1	< 50 nM
N#CCC1CCN(c2nc(Nc3ccc(N4CCN(CC#N)CC4)cc3)c3c(=O)[nH]ncc3n2)CC1	< 10 nM
N#CCC1CCN(c2nc(Nc3ccc(CO)cc3)c3c(=O)[nH]ncc3n2)CC1	< 100 nM
O=c1[nH]ncc2nc(-c3ccccc3)nc(Nc3ccc(OCCN4CCOCC4)cc3)c12	< 100 nM
CCN(CC)CCOc1ccc(Nc2nc(N3CCC(CC#N)CC3)nc3cn[nH]c(=O)c23)cc1	< 50 nM
O=c1[nH]ncc2nc(N3CCCCCC3)nc(Nc3ccc(CCCN4CCC(O)CC4)cc3)c12	< 10 nM
O=C(O)CC1CCN(c2ccc(Nc3nc(N4CCCCCCC4)nc4cn[nH]c(=O)c34)cc2)CC1	< 10 nM

Prompt line: Give recorded IC50. O=c1[nH]ncc2nc(N3CCCCCC3)nc(Nc3ccc(OCCCO)cc3)c12
Response line: < 100 nM

Prompt line: Item CC(C)(Oc1ccc(Nc2nc(N3CCC(CC#N)CC3)nc3cn[nH]c(=O)c23)cc1)C(=O)O : provide IC50
Response line: > 100 nM

Prompt line: Return the recorded IC50 value; entry: O=c1[nH]ncc2nc(N3CCCCCC3)nc(Nc3ccc(N4CCC(O)CC4)nc3)c12
Response line: < 50 nM
